- Test system: Falciformispora senegalensis CBS197.79
- METHOD_SUMMARY: growth relative to untreated control; higher = less inhibition, active = 20 or less
- SETUP_CONDITIONS: 100 µM
Assignment: determine reported growth for the given compounds.
One number for each entry, in %.

See these solved cases before continuing.
COMPOUND	RECORDED_RESULT
Cc1cc(C(=O)N2CCOc3c(cc(-c4csc5ccccc45)cc3OCCc3ccccn3)C2)n(C)n1	91.1
Clc1ccc(Nc2nc3cnc(NC4CC4)nc3n2C2CCNCC2)cc1Cl	91.4
CCCNc1nc(NC2CCCCC2)c2ccsc2n1	88.3

Query :: Could you share which growth value was measured for Cc1nn(-c2cccc(Cl)c2)c2c1C(C(=O)c1ccc3c(c1)OCO3)CC(=O)N2 (centres undefined) ?
Result :: 91.7
